Cited source for all entries: the supplement of paper PMC10126150

Form field: switch fluorescence ratio (one value per entry).
# System: ATP;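 note: ATP exposure 15 min at 22 °C before imaging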
# test_details: switch fluorescence ratio, 500 uM ATP over buffer (Cy3 cluster intensity, sum of 5 cycles each) (fold (ratio)); higher = stronger signal-on switching upon ATP binding; sequences stand for … in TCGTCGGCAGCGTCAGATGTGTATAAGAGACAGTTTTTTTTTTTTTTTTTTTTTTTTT…TC
# test_parameters: aptamer strand: ATP DNA aptamer (quencher-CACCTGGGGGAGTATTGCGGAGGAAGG + anchor), 100 nM annealed; ATP concentration: 500 uM
reported_property: switch fluorescence ratio

>>> observed_value("GAGCTCTTAT")
1
>>> observed_value("TATCGAAGGC")
0.982
>>> observed_value("TTGGGGCTT")
1.32
>>> observed_value("TTTGGAATTT")
1.06
>>> observed_value("CCGATAGCGT")
2.81
>>> observed_value("ATATCGTGCA")
0.997
>>> observed_value("GAGGGTTCGA")
0.987
>>> observed_value("TCGGGTTTTT")
1
>>> observed_value("GAACGTACAA")
1.59
>>> observed_value("GCGTCAGGAT")
1.04
>>> observed_value("TGGGTTCTTG")
0.998

###

Form field: switch fluorescence ratio (one value per entry).
# System: ATP;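 note: ATP exposure 15 min at 22 °C before imaging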
# test_details: switch fluorescence ratio, 500 uM ATP over buffer (Cy3 cluster intensity, sum of 5 cycles each) (fold (ratio)); higher = stronger signal-on switching upon ATP binding; sequences stand for … in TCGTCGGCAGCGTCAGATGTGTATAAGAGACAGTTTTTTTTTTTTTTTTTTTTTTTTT…TC
# test_parameters: aptamer strand: ATP DNA aptamer (quencher-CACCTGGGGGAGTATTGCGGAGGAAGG + anchor), 100 nM annealed; ATP concentration: 500 uM
reported_property: switch fluorescence ratio

>>> observed_value("TTGGTAGCGG")
1.02
>>> observed_value("GACCCGTCAG")
1.01
>>> observed_value("GGGCATAAAG")
1.02
>>> observed_value("TTGGAATGGA")
0.989
>>> observed_value("TTTGGGAA")
1.03
>>> observed_value("GGGGGAGGTT")
0.977
>>> observed_value("GATGTATATT")
1
>>> observed_value("CAGCTTTTGG")
0.993
>>> observed_value("ACCATGCGTC")
0.99
>>> observed_value("GATAAAGTTA")
0.992
>>> observed_value("CAAGATTGGA")
0.961
>>> observed_value("AATGTGGACG")
0.988
>>> observed_value("GCCGATTATA")
1
>>> observed_value("TTTCGAATTG")
0.975
>>> observed_value("GGGGGGGAAA")
0.99
>>> observed_value("GAGAAGCGGT")
1
>>> observed_value("GCGTAAGGAG")
1.06
>>> observed_value("GGCTTAGTTG")
0.982
>>> observed_value("TTTTTGTGAT")
1.02
>>> observed_value("TGCTCGTGCT")
1.01
>>> observed_value("AGAAATTCAT")
0.992

###

Form field: switch fluorescence ratio (one value per entry).
# System: ATP;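 note: ATP exposure 15 min at 22 °C before imaging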
# test_details: switch fluorescence ratio, 500 uM ATP over buffer (Cy3 cluster intensity, sum of 5 cycles each) (fold (ratio)); higher = stronger signal-on switching upon ATP binding; sequences stand for … in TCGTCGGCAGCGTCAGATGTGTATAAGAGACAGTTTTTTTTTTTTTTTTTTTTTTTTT…TC
# test_parameters: aptamer strand: ATP DNA aptamer (quencher-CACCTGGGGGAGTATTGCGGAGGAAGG + anchor), 100 nM annealed; ATP concentration: 500 uM
reported_property: switch fluorescence ratio

>>> observed_value("TTATTCGATT")
0.982
>>> observed_value("CATAGGGAGA")
1.01
>>> observed_value("TTGTACGTGG")
1.07
>>> observed_value("TCAGGCTAGC")
1.07
>>> observed_value("ATGGATTCTG")
1.07
>>> observed_value("GGCTACGTTT")
1.05
>>> observed_value("TAATCGTTTG")
0.962
>>> observed_value("TGGGGGCTTG")
0.993
>>> observed_value("GGTAGTCTTT")
0.996
>>> observed_value("GCATGATAAT")
1
>>> observed_value("TATGAGAGCC")
1.02
>>> observed_value("CTGACTCGGT")
1.12
>>> observed_value("TAATGGGGGT")
0.994
>>> observed_value("ATCCTTGGTC")
1.01
>>> observed_value("AGACTGTTAG")
0.976
>>> observed_value("ACAAGTGATC")
1.08
>>> observed_value("TGCTTGGGGG")
0.979
>>> observed_value("CGGGGCTATG")
0.997
>>> observed_value("TTGTATTTTG")
0.985
>>> observed_value("TGGGTGTCGT")
1.02
